These entries and their values trace back to PubChem BioAssay.

# procedure-summary: basal S. cerevisiae growth modulation, no modifier, primary screen, OD600, strain BY4716, 24 h, basal condition (AID 1173)
# measurement-context: OD600, 24 h, higher = more signal, called active from +8 up or from −8 down
z-score vs -0.7: at or above is Condition met, below is Condition not met.

CC(C)C(=C=CC[C@H](O)c1cccc(OCCO)c1)CCO | Condition not met
[N-]=[N+]=NCc1ccccc1[C@@H]1OC(c2ccc(OCCCO)cc2)=N[C@]1(Cc1ccccc1N=[N+]=[N-])C(=O)N1CCCCC1 | Condition met
CC(C)CNC(=O)[C@@]1(c2ccc([N+](=O)[O-])cc2)CC(=O)N(C2CCCCC2)[C@@H]1c1ccc(CO)cc1 | Condition not met
CC(C)OC(=O)CC(=O)CC(O)c1ccc([N+](=O)[O-])cc1 (stereo unspecified) | Condition not met
O=C1O[C@H](c2ccccc2)[C@H](c2ccccc2)N2[C@H]1[C@@H](C(=O)N1CCCCCCC1)[C@]1(C(=O)Nc3ccc(C#CC4(O)CCCCCC4)cc31)[C@H]2c1ccccc1OCCO | Condition met
C=CC1c2cc(O)c(OC)cc2CCN1Cc1ccc([N+](=O)[O-])o1 (stereo unspecified) | Condition met
CC(C)[C@H]1NC(=O)[C@@]23C(=O)N[C@@H](Cc4ccccc4)C2[C@H](C)[C@@]2(C)O[C@H]2C3/C=C/CCC/C=C/CNC(=O)[C@H](Cc2ccccc2)NC1=O (stereo partly specified) | Condition not met
CN1C(=O)C2C(C1=O)C1C=C(CCCO)C2C(c2cccs2)N1Cc1cc2c(cc1Br)OCO2 (stereo unspecified) | Condition not met
CC(C)CNC(=O)[C@@]1(C)c2ccccc2C(=O)N(Cc2cc(C(F)(F)F)cc(C(F)(F)F)c2)[C@H]1c1ccc(CO)cc1 | Condition met
CC(=O)NCCCC[C@@H]1NC(=O)[C@@H]2C[C@H](C(=O)NCCCCCCN)[C@H](c3cccc(OCCO)c3)N2C1=O | Condition met
Cc1ccc([C@H]2C(C(=O)O)=C[C@@H](C(C)(C)C)N2S(=O)(=O)c2ccc(C)cc2)cc1 | Condition met
